Every entry's value here was drawn from patent US20200354457A1.

- assayed_target: T1, human LAG3 on recombinant CHO cells (human, UniProt P18627 23-525)
- T1 construct: whole, on cells; also called Lag3 cells; recombinant CHO cells expressing Lag3
- T1 sequence (looked up): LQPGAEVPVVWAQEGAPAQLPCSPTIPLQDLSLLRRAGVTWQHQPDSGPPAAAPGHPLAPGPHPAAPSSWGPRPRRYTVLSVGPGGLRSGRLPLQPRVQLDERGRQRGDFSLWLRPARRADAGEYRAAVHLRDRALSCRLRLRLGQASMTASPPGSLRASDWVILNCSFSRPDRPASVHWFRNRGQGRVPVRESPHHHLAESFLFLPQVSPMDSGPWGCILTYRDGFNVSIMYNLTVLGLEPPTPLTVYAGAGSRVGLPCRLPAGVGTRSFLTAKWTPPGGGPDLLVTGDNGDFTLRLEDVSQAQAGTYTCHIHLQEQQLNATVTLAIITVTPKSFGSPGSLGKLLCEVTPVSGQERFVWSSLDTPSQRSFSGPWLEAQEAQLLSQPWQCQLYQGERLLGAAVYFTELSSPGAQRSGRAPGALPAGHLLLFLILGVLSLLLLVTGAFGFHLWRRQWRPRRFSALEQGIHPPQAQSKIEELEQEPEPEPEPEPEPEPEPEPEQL
- measurement_protocol: cell ELISA on CHO cells expressing human LAG3;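 further: bivalent Fc-format binders titrated in threefold steps from 6 µg/mL, incubated with the cells 2 h at 4 °C, bound antibody detected by HRP-coupled anti-human IgG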
readout_kind: OD max (OD)

[[record]]
binder = "bivalent P11A2 aVH-Fc (Fc fusion) EVQLVESGGGLVQPGGSLRLSCAASSFNIKDTYIGWVRRAPGKGTELVAEIACHEGTTRYADSVKGRFTISCDTSKNTAYLQMNSLRAEDTAVYYCANTEYDDIFDYWGQGTTVTVSSGGGGSGGGGSDKTHTCPPCPAPEAAGGPSVFLFPPKPKDTLMISRTPEVTCVVVDVSHEDPEVKFNWYVDGVEVHNAKTKPREEQYNSTYRVVSVLTVLHQDWLNGKEYKCKVSNKALGAPIEKTISKAKGQPREPQVYTLPPSRDELTKNQVSLTCLVKGFYPSDIAVEWESNGQPENNYKTTPPVLDSDGSFFLYSKLTVDKSRWQQGNVFSCSVMHEALHNHYTQKSLSLSPGK"
meas_value = 1.2

